# experimental conditions: buffer; pH 7.4; 200.0 µM
readout: solubility kinetic (µg/mL)

>>> readout_value("O=C(c1ccccc1)c1ccccc1N=Cc1c(O)[nH]c(=O)[nH]c1=O")
3.8
>>> readout_value("CCC1(C)Cc2nc(Cl)c(C#N)cc2CO1 (stereo unspecified)")
34.2
>>> readout_value("S=C(NCc1ccccc1)Nc1ccc2ccccc2c1")
0.9
>>> readout_value("CC(C)NC(=O)c1cc(-c2ccc3c(c2)OCO3)on1")
17.9

---

Measured log10(solubility kinetic) accompanies every entry in the list below.
# experimental conditions: buffer; pH 7.4; 200.0 µM
readout: log10(solubility kinetic) (log10 of the value in µg/mL)

>>> readout_value("COc1ccc(N/C(=N/c2nc(C)cc(C)n2)NC(=O)c2ccccc2)cc1")
-0.52
>>> readout_value("COC(=O)/C=C1/SC(=Nc2ccc(Cl)c(Cl)c2)NC1=O")
0.00
>>> readout_value("CCOC(=O)N1CCC(NC(=O)c2cccs2)CC1")
1.58
>>> readout_value("CC1CCCC(NC(=O)CCn2c(=S)oc3ccccc32)C1C (centres undefined)")
0.30
>>> readout_value("O=C1Nc2ccccc2C1Cc1ccccc1 (centres undefined)")
1.46
>>> readout_value("CC(C)(C)c1cc(CCC(=O)N2CCCC2)cc(C(C)(C)C)c1O")
1.64
>>> readout_value("O=C(NCCCCc1ccccc1)C1CCCC1")
1.52
>>> readout_value("CCCN1CCC(N(CCc2ccccc2)Cc2ccccc2)CC1")
1.51
>>> readout_value("CN(C)CCCN1C(=O)CSC1c1ccc([N+](=O)[O-])cc1.Cl (centres undefined)")
1.68
>>> readout_value("Cc1ccc(C(C)c2c(C)c([N+](=O)[O-])cc(C)c2[N+](=O)[O-])cn1 (centres undefined)")
1.13
>>> readout_value("CCOc1ccc(C(=O)n2cc(C(=O)OC)c3ccccc32)cc1OCC")
0.59
>>> readout_value("O=C(CN1C(=O)NC2(CCc3ccccc32)C1=O)Nc1cccc(Cl)c1 (centres undefined)")
1.73
>>> readout_value("COC(=O)/C(C#N)=C/c1c(-c2ccccc2)nc2n1CCS2")
0.88

---

# experimental conditions: buffer; pH 7.4; 200.0 µM
readout: solubility kinetic (µg/mL)

>>> readout_value("c1ccc(-c2ccc(CN3CCSCC3)cc2)cc1")
1.7
>>> readout_value("Cc1ccsc1-c1nc(CN2CCN(C)C(=O)[C@@H]2C)c(C)o1")
40
>>> readout_value("Cl.NC(N)=Nc1nc(-c2ccccc2)c2cc(Cl)ccc2n1")
9.7
>>> readout_value("CCOc1ncccc1C(=O)OCc1ccc([N+](=O)[O-])cc1")
1.3
>>> readout_value("Cn1c(CCNC(=O)c2ccco2)nc2cc([N+](=O)[O-])ccc21")
43.1
>>> readout_value("CN(CC(=O)Nc1cccc(F)c1)C(=O)CSc1ccccc1F")
46.7
>>> readout_value("CCCCCn1cc(C(=O)C(=O)N2CCOCC2)c2ccccc21")
46.8
>>> readout_value("CC(=O)Nc1ccc(-c2cc(C(=O)O)c3ccccc3n2)cc1")
42.8
>>> readout_value("CCN=C(NCC)SC1CC(=O)N(CCc2ccccc2)C1=O (stereo not given)")
36.3
>>> readout_value("COc1ccc2nc(C)cc(NCCN3CCOCC3)c2c1")
42.3
>>> readout_value("O=c1c(Cc2ccc(F)cc2)c(O)ccn1Cc1ccco1")
33
>>> readout_value("Cc1onc(-c2ccccc2)c1CNS(=O)(=O)c1ccc(F)cc1F")
51.6
>>> readout_value("Cc1ccc(C)n1-c1ccc(N2CCOCC2)c([N+](=O)[O-])c1")
29.3
>>> readout_value("O=C(Nc1ccccc1Cc1ccccc1)c1ccccc1F")
3.1
>>> readout_value("COC(=O)c1ccccc1NC(=O)COC(=O)/C=C/c1cccs1")
1.8

---

# experimental conditions: buffer; pH 7.4; 200.0 µM
readout: log10(solubility kinetic) (log10 of the value in µg/mL)

>>> readout_value("Cc1ccc(C)c(NC2=C(Cl)C(=O)OC2OC(C)C)c1 (stereo not given)")
1.03
>>> readout_value("CSc1nsc(SCC(=O)Nc2ccc(F)cc2)n1")
1.60
>>> readout_value("O=C(Cc1ccc(Br)cc1)NCCc1ccc(F)cc1")
1.17
>>> readout_value("CCC1(CC)Cc2ccccc2-c2nc(NCCCO)[nH]c(=O)c21")
1.62
>>> readout_value("COC(=O)c1sccc1NC(=O)Nc1cc(C)cc(C)c1")
0.43
>>> readout_value("CCCc1cc(=O)[nH]c(SCC(=O)c2c(N)n(C3CC3)c(=O)[nH]c2=O)n1")
1.49
>>> readout_value("COC(=O)c1sccc1NC(=O)C1CCCCC1C(=O)O (stereo not given)")
1.62
>>> readout_value("Cc1ccccc1C(=O)NC1CCN(C(=O)Nc2ccc(F)cc2)CC1")
1.33
>>> readout_value("O=S(=O)(c1ccc(F)cc1)N1CCN(CCc2ccccc2)CC1")
0.61
>>> readout_value("O=C1c2cccc3c([N+](=O)[O-])ccc(c23)C(=O)N1CCc1ccccn1")
-0.40
>>> readout_value("O=C(c1ccccc1)C1CCN(C(=O)c2ccco2)CC1")
1.62
>>> readout_value("CCC(=O)N(CCC(c1ccco1)C(C)C)Cc1ccccc1 (stereo not given)")
1.37
>>> readout_value("COc1ccccc1NS(=O)(=O)c1cc(NC(=O)COc2ccccc2)ccc1N1CCOCC1")
0.91
>>> readout_value("N#CCCN(C(=O)COC(=O)/C=C/c1cccs1)c1ccccc1")
1.00
>>> readout_value("CC(C)(Oc1ccc(Cl)cc1)C(=O)NC1CCCCC1")
0.59

---

# experimental conditions: buffer; pH 7.4; 200.0 µM
readout: solubility kinetic (µg/mL)

>>> readout_value("COc1ccc(CNC(=O)CSc2nc(SC)ns2)cc1")
26.4
>>> readout_value("O=C(Nc1cccc(F)c1)C1CCN(C(=O)c2ccco2)CC1")
44.4
>>> readout_value("CCOc1ccc(Nc2cc(C)nc3c(C)cccc23)cc1")
24.5

---

# experimental conditions: buffer; pH 7.4; 200.0 µM
readout: log10 solubility kinetic (log10 of the value in µg/mL)

>>> readout_value("COc1ccc(C(=O)OCC(=O)NC2CC2)cc1F")
1.51
>>> readout_value("COc1ccc(Cl)cc1NC(=O)COC(=O)c1cc(C)oc1C")
0.62
>>> readout_value("FC(F)(F)Oc1ccc(-c2cn3cccnc3n2)cc1")
0.93
>>> readout_value("Cc1cc(C)c(C)c(S(=O)(=O)NCC(=O)Nc2ccccc2F)c1C")
1.09
>>> readout_value("CC1CCN(C(=O)COC(=O)CCc2c[nH]c3ccccc23)CC1")
0.95
>>> readout_value("Cc1noc(C)c1S(=O)(=O)Nc1ccccc1OC(F)(F)F")
1.69
>>> readout_value("Nc1nccc(-c2ccc(-n3cnc4ccccc43)cc2)n1")
0.30

---

# experimental conditions: buffer; pH 7.4; 200.0 µM
Examples of molecules with documented solubility kinetic follow.
readout: solubility kinetic (µg/mL)

>>> readout_value("Cc1ccc(Sc2ncccc2O)cc1")
17.4
>>> readout_value("O=S(=O)(c1ccccc1)N1CC=C(c2ccccc2)CC1")
1.1
>>> readout_value("Cc1ccc(NC(=O)C2CC(O)CN2C(=O)OCc2ccccc2)cc1C (centres undefined)")
48.8
>>> readout_value("CCCNC(=S)N1CCC(C(=O)c2ccc3c(c2)OCCO3)CC1")
41.3
>>> readout_value("N/C(=N\\OC(=O)Nc1ccccc1)c1cccc(C(F)(F)F)c1")
27.9
>>> readout_value("CN(Cc1ccc2c(c1)OCCO2)C(=O)CSc1ncnc2sccc12")
41.8
>>> readout_value("CN(C(=O)C1CCC1C(=O)O)c1nc(-c2ccc(Cl)s2)cs1 (centres undefined)")
42.6
>>> readout_value("COc1ccc(Cl)cc1C(=O)N1CCN(Cc2ccc3c(c2)OCO3)CC1")
47.4
>>> readout_value("O=C(N/C(=C/c1cccs1)C(=O)N1CCCC1)c1ccccc1")
46.5
>>> readout_value("Cc1nc(/C(N)=N/OC(=O)c2ccc(Cl)cc2)c(C(F)(F)F)o1")
17
>>> readout_value("Cc1ccccc1CC1(CO)CCCN(C(=O)CCC(F)(F)F)C1 (centres undefined)")
48.3
>>> readout_value("COc1ccc2[nH]c(C(=O)N3CCc4ccccc4C3)c(C)c2c1")
2.6
>>> readout_value("Cc1ccc(NS(=O)(=O)c2ccc(C(=O)NC3CCN(Cc4ccccc4)CC3)cc2)cc1.Cl")
6.4

---

# experimental conditions: buffer; pH 7.4; 200.0 µM
readout: solubility kinetic

>>> readout_value("c1ccc(CNc2cncnc2)cc1")
"26.4 µg/mL"
>>> readout_value("Cc1sc2ncnc(SCC(=O)NC3CCCC3)c2c1C")
"5.2 µg/mL"
>>> readout_value("CCN(CC)CC(O)CCCCCCCCC(=O)OC.Cl (stereo unspecified)")
"> 48.6 µg/mL"
>>> readout_value("Cc1cc(OCCCn2ccnc2)cc(C(C)C)c1")
"23.3 µg/mL"
>>> readout_value("COc1ccccc1C(=O)NCCC(=O)NCC1CCCO1 (stereo unspecified)")
"> 46 µg/mL"
>>> readout_value("CCNc1nc2cccnc2s1")
"24.7 µg/mL"
>>> readout_value("Cc1ccc(CSc2nccc(-c3c(C)nc4ccccn34)n2)cc1")
"1.6 µg/mL"
>>> readout_value("O=CNCCc1nc2ccccc2n1CCc1ccccc1")
"41 µg/mL"
>>> readout_value("CCCC(=O)O/N=C(\\c1ccccc1)c1ccncc1")
"38.4 µg/mL"
>>> readout_value("CN(CC(=O)Nc1ccccc1Cl)C(=O)CCNC(=O)Nc1ccccc1")
"> 58.3 µg/mL"
>>> readout_value("COc1ccccc1C(=O)NCCOc1ccc(C(C)(C)C)cc1")
"2.7 µg/mL"
>>> readout_value("COc1ccc(CNC(=O)COC(=O)c2ccc(C)c(S(=O)(=O)N3CCOCC3)c2)cc1")
"7.8 µg/mL"
>>> readout_value("COc1ccc(CCNS(=O)(=O)c2cccc([N+](=O)[O-])c2)cc1")
"42.8 µg/mL"
>>> readout_value("CCC(C(=O)NCCc1c[nH]c2ccc(C)cc12)c1ccccc1 (stereo unspecified)")
"26.4 µg/mL"
>>> readout_value("COCCN(CC(=O)Nc1cccc(C)c1C)C(=O)Cc1ccsc1")
"> 54.1 µg/mL"
>>> readout_value("CN1CCN(c2ccc(C(F)(F)F)cc2N)CC1")
"> 38.9 µg/mL"
>>> readout_value("O=C(NCC(O)c1ccccc1)c1cccs1 (stereo unspecified)")
"> 37.1 µg/mL"
>>> readout_value("COCC(C)n1c(C)cc(C(=O)COC(=O)c2cc(=O)[nH]c3ccccc23)c1C (stereo unspecified)")
"11 µg/mL"
>>> readout_value("Cc1oc(/N=C/c2ccccc2)c(C#N)c1C")
"9.2 µg/mL"
>>> readout_value("COC(=O)c1ccc(OCC2NCCc3cc(OC)c(OC)cc32)cc1 (stereo unspecified)")
"> 53.6 µg/mL"
>>> readout_value("COc1ccc(Cl)cc1NC(=S)NC1CCCC1")
"3 µg/mL"
>>> readout_value("C1CN(c2nc3nonc3nc2N2CCSCC2)CCO1")
"41.1 µg/mL"
>>> readout_value("CC(C)(C)NC(=O)COC(=O)c1ccc(Cl)nc1")
"36.4 µg/mL"
>>> readout_value("O=C(CN1C(=O)NC2NC(=O)NC21)N/N=C/c1ccccc1O (stereo unspecified)")
"> 47.7 µg/mL"
>>> readout_value("COc1ccc(N(C=O)C(=S)SC)cc1")
"2.7 µg/mL"
>>> readout_value("O=[N+]([O-])c1ccc(C(O)C23CN4CN(CN(C4)C2)C3)cc1 (stereo unspecified)")
"34.8 µg/mL"

Where these numbers come from: PubChem BioAssay AID1996
